- test_system: Hepatocyte growth factor receptor (Homo sapiens)
- Sequence (P08581 whole entry, the tested form may be a part): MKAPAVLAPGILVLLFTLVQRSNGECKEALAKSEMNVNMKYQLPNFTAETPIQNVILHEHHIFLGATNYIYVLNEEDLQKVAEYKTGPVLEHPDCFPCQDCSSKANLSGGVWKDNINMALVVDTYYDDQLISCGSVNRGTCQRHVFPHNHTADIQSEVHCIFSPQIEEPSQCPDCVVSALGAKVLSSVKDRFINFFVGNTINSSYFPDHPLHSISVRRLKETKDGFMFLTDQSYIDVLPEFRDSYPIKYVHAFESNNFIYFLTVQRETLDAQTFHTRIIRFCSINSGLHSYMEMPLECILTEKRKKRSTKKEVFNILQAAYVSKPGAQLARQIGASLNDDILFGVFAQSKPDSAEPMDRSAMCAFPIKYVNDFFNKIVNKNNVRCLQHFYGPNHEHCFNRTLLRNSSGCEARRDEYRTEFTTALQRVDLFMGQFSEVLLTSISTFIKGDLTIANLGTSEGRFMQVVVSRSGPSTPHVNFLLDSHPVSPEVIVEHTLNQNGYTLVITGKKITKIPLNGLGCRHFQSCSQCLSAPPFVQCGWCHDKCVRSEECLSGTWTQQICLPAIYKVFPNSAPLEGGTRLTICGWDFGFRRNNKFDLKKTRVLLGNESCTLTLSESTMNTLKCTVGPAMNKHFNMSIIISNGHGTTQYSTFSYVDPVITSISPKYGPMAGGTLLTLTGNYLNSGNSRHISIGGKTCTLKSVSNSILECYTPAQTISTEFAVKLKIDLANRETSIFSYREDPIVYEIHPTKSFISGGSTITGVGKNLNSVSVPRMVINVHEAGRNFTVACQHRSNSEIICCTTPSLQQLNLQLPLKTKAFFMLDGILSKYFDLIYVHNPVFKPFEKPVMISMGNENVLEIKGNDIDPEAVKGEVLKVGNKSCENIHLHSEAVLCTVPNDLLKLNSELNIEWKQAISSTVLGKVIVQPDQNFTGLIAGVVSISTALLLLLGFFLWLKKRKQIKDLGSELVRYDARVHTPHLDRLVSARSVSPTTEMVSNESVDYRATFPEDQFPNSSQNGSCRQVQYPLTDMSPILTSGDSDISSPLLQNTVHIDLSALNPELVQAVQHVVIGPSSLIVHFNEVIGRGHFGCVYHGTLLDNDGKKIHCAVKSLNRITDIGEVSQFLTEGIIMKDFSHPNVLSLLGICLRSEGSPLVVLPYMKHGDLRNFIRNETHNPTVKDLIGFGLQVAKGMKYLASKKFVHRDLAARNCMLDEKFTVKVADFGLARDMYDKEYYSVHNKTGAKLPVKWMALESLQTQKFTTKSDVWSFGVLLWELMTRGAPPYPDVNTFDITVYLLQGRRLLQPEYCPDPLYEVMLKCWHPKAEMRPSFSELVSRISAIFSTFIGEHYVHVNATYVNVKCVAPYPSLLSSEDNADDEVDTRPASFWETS
- experiment_summary: Inhibition of purified recombinant MET kinase domain (unknown origin) using biotin as substrate preincubated for 5 mins followed by substrate addition and measured after 30 to 60 mins in presence of ATP by HTRF assay
value_kind: IC50 (nM)

compound	test_system	u	IC50
O=C(CO)Nc1cc(Oc2ccc(Nc3nccc4[nH]cc(-c5ccc(F)cc5)c(=O)c34)cc2F)ccn1	Hepatocyte growth factor receptor (Homo sapiens)	nM	9.9
CC(C)(C)C(=O)Nc1cc(Oc2ccc(Nc3nccc4[nH]cc(-c5ccc(F)cc5)c(=O)c34)cc2F)ccn1	Hepatocyte growth factor receptor (Homo sapiens)	nM	28.1
CC(=O)Nc1cc(Oc2ccc(Nc3nccc4[nH]cc(-c5ccc(F)cc5)c(=O)c34)cc2F)ccn1	Hepatocyte growth factor receptor (Homo sapiens)	nM	21.4
O=C(Nc1cc(Oc2ccc(Nc3nccc4[nH]cc(-c5ccc(F)cc5)c(=O)c34)cc2F)ccn1)C1CC1	Hepatocyte growth factor receptor (Homo sapiens)	nM	8.1
CC(O)C(=O)Nc1cc(Oc2ccc(Nc3nccc4[nH]cc(-c5ccc(F)cc5)c(=O)c34)cc2F)ccn1 (configuration not stated)	Hepatocyte growth factor receptor (Homo sapiens)	nM	11.8

1: CCCCC(=O)Nc1cc(Oc2ccc(Nc3nccc4[nH]cc(-c5ccc(F)cc5)c(=O)c34)cc2F)ccn1
2: Cn1cc(-c2ccc(F)cc2)c(=O)c2c(Nc3ccc(Oc4ccnc(NC(=O)C5CC5)c4)c(F)c3)nccc21
Problem: Lab notebook, comparison: 1 versus 2 , higher IC50 goes to which? To answer, give the label that identifies your chosen option.
Result: 1

---

- Test system: HT-29
- experiment_summary: Antiproliferative activity against human HT-29 cells at 10 uM incubated for 72 hrs by MTT assay relative to control
- Assay type: functional
- measurement_parameters: HT-29, 72 h
// reported inhibition at 10 µM per item
Answer with a number only, understood to be in %.

Look over these answered cases.
structure_as_smiles	result
CC(C)(O)C(=O)Nc1cc(Oc2ccc(Nc3nccc4[nH]cc(-c5ccc(F)cc5)c(=O)c34)cc2F)ccn1	-2.9
CCCCC(=O)Nc1cc(Oc2ccc(Nc3nccc4[nH]cc(-c5ccc(F)cc5)c(=O)c34)cc2F)ccn1	-42.2
O=C(CO)Nc1cc(Oc2ccc(Nc3nccc4[nH]cc(-c5ccc(F)cc5)c(=O)c34)cc2F)ccn1	18.5

Problem: Indicate its recorded inhibition at 10 µM; the molecule in question is Nc1nccc(Oc2ccc(Nc3nccc4[nH]cc(-c5ccc(F)cc5)c(=O)c34)cc2F)c1Cl
Result: 56.2

Problem: Indicate its recorded inhibition at 10 µM; the molecule in question is O=C(Nc1cc(Oc2ccc(Nc3nccc4c3c(=O)c(-c3ccc(F)cc3)cn4CCO)cc2F)ccn1)C1CC1
Result: 3.5

Problem: Indicate its recorded inhibition at 10 µM; the molecule in question is O=C(Nc1cc(Oc2ccc(Nc3nccc4[nH]cc(-c5ccc(F)cc5)c(=O)c34)cc2F)ccn1)C1CCC1
Result: 46

Problem: Indicate its recorded inhibition at 10 µM; the molecule in question is CC(=O)Nc1cc(Oc2ccc(Nc3nccc4[nH]cc(-c5ccc(F)cc5)c(=O)c34)cc2F)ccn1
Result: 36.8

Problem: Indicate its recorded inhibition at 10 µM; the molecule in question is Cn1cc(-c2ccc(F)cc2)c(=O)c2c(Nc3ccc(Oc4ccnc(NC(=O)C5CC5)c4)c(F)c3)nccc21
Result: 24.8

Problem: Indicate its recorded inhibition at 10 µM; the molecule in question is CCn1cc(-c2ccc(F)cc2)c(=O)c2c(Nc3ccc(Oc4ccnc(NC(=O)C5CC5)c4)c(F)c3)nccc21
Result: 15.8

Problem: Indicate its recorded inhibition at 10 µM; the molecule in question is CCCC(=O)Nc1cc(Oc2ccc(Nc3nccc4[nH]cc(-c5ccc(F)cc5)c(=O)c34)cc2F)ccn1
Result: 23.5
